Numbers sourced from patent US4752606A.

# Assay details: Acute toxicity of aspirin with and without oleanolic acid
# Assay type: in vivo
# Protocol conditions: mouse, in vivo, po, mice, females, mixture 1:1 mass ratio
Measurement type: LD50 (mg/kg)
Enter your answer as a number in mg/kg; do not include the unit.

Task: Give its LD50 value. Item: CC(=O)Oc1ccccc1C(=O)O
Result: 2100

====

# Assay details: Acute toxicity of aspirin with and without oleanolic acid
# Assay type: in vivo
# Protocol conditions: mouse, in vivo, po, mice, combined, mixture 1:1 mass ratio
Measurement type: LD50 (mg/kg)
Enter your answer as a number in mg/kg; do not include the unit.

Task: Give its LD50 value. Item: CC(=O)Oc1ccccc1C(=O)O [Aspirin]
Result: 1800
